- Test system: MDR1
- experiment summary: MDCKII-MDR1 permeability assay
- test parameters: dog, MDCK-MDR1, Recovery B->A, MDCKII-MDR1; assay conc. 10
parameter: recovery at 2 h, 10 µM (%)
Express the result in % but write the number alone.

Would you please look over these solved cases?
Task: Recall the recorded recovery at 2 h, 10 µM for Cn1cc(-c2cc3c(N4CCN(c5ncc(C(C)(N)c6ccc(F)cc6)cn5)CC4)ncnn3c2)cn1 (centres unmarked) with MDR1 and state it.
Result: 150

Task: Can you check CC(=O)N[C@@](C)(c1ccc(F)cc1)c1cnc(N2CCN(c3ncnn4cc(-c5cnn(C)c5)cc34)CC2)nc1 next?
Result: 48.4

Task: Here is the next molecule: C=CC(=O)N[C@@](C)(c1ccc(F)cc1)c1cnc(N2CCN(c3ncnn4cc(-c5cnn(C)c5)cc34)CC2)nc1
Result: 38.9

Task: Param item: Cn1cc(-c2cc3c(N4CCN(c5ncc([C@@](C)(NC(=O)c6ccccc6)c6ccc(F)cc6)cn5)CC4)ncnn3c2)cn1
Result: 63.6

Others:
Task: Report recovery at 2 h, 10 µM for COC(=O)N[C@@](C)(c1ccc(F)cc1)c1cnc(N2CCN(c3ncnn4cc(-c5cnn(C)c5)cc34)CC2)nc1 tested on MDR1.
Result: 49.7

----------
- tested system: PDGFRA-D842V (Homo sapiens, UniProt P16234, D842V)
- Construct: purchased Invitrogen PV4203 (lot #2343231B)
- Sequence (P16234 24-1089 D842V): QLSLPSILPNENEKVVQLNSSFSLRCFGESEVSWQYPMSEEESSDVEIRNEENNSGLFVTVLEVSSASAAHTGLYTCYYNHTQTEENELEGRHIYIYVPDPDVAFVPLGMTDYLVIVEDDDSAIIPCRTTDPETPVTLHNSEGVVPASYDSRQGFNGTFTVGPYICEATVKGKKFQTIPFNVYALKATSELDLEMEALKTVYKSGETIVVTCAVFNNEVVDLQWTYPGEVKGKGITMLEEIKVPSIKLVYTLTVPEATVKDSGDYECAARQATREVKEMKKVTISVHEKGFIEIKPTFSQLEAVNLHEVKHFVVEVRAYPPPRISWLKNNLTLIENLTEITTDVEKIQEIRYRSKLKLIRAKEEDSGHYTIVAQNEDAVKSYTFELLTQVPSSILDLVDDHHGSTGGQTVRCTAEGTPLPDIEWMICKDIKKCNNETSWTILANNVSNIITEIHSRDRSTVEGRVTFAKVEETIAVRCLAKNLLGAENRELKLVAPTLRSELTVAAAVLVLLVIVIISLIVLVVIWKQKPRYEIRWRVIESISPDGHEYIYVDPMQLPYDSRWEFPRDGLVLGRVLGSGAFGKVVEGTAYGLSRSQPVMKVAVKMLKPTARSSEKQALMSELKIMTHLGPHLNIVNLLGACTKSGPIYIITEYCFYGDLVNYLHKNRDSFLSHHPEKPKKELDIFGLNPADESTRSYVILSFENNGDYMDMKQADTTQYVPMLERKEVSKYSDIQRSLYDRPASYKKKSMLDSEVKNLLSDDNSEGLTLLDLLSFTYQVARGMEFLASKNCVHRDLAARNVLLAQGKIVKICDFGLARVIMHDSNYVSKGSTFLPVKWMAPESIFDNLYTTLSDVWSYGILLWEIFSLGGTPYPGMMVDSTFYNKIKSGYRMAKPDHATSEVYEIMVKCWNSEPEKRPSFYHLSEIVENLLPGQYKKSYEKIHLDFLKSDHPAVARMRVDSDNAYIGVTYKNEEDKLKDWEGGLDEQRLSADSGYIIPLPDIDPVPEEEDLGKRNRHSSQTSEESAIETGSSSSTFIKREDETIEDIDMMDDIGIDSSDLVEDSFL
- experiment summary: Activity-based HTRF KinEASE assay, PDGFRA-D842V
- Format: biochemical
- test parameters: raw data of Table 1, independent experiments 1-3; unit from Table 1; read-out: HTRF IC50 PDGFRA-D842V, single determinations
pIC50: −log10 of the molar value.
Quick reference for pIC50 among some molecules

Consider the worked cases shown below.
Task: Entry under review: CC(=O)N[C@@](C)(c1ccc(F)cc1)c1cnc(N2CCN(c3ncnn4cc(-c5cnn(C)c5)cc34)CC2)nc1 . Reported pIC50?
Result: > 10.00

Task: Check CCN[C@@](C)(c1ccc(F)cc1)c1cnc(N2CCN(c3ncnn4cc(-c5cnn(C)c5)cc34)CC2)nc1 too.
Result: > 10.00

***
Task: Given the entry C=CC(=O)N[C@@](C)(c1ccc(F)cc1)c1cnc(N2CCN(c3ncnn4cc(-c5cnn(C)c5)cc34)CC2)nc1 , report its measured pIC50.
Result: > 10.00

----------
- Tested on: GIST-T1
- experiment summary: CellTiter-Glo (CTG) GR50, GIST-T1
- test parameters: Homo sapiens, GISTT1, read-out: KIT CTG GR50 GIST-T1, mean ± s.d., n ≥ 3; GR50 half-maximal growth inhibition rate
parameter: GI50 (nM)
Answer format: numeric, nM implied, no suffix.

Task: Need GI50 of C=CC(=O)N[C@@](C)(c1ccc(F)cc1)c1cnc(N2CCN(c3ncnn4cc(-c5cnn(C)c5)cc34)CC2)nc1 , thanks.
Result: 39

Task: What do we get for Cn1cc(-c2cc3c(N4CCN(c5ncc([C@@](C)(NC(=O)c6ccccc6)c6ccc(F)cc6)cn5)CC4)ncnn3c2)cn1 ?
Result: 287

Task: Query CN(C)[C@@](C)(c1ccc(F)cc1)c1cnc(N2CCN(c3ncnn4cc(-c5cnn(C)c5)cc34)CC2)nc1 next
Result: 254

Task: Next: CC(=O)N[C@@](C)(c1ccc(F)cc1)c1cnc(N2CCN(c3ncnn4cc(-c5cnn(C)c5)cc34)CC2)nc1
Result: 39

----------
Papp A→B at 2 h, 10 µM by entry:
- experiment summary: MDCKII-MDR1 permeability assay
- test parameters: dog, MDCK-MDR1, Papp A->B, MDCKII-MDR1; assay conc. 10; apical to basolateral
Field format: number, assumed ×10⁻⁶ cm/s, no unit text.

Sample records with Papp A→B at 2 h, 10 µM:
Task: Name the reported Papp A→B at 2 h, 10 µM value associated with the molecule Cn1cc(-c2cc3c(N4CCN(c5ncc([C@@](C)(NC(=O)c6ccccc6)c6ccc(F)cc6)cn5)CC4)ncnn3c2)cn1
Result: 3.46

Task: Would you kindly repeat that for Cn1cc(-c2cc3c(N4CCN(c5ncc(C(C)(N)c6ccc(F)cc6)cn5)CC4)ncnn3c2)cn1 (stereo not shown) ?
Result: 12.5

Task: Lookup COC(=O)N[C@@](C)(c1ccc(F)cc1)c1cnc(N2CCN(c3ncnn4cc(-c5cnn(C)c5)cc34)CC2)nc1
Result: 12.4

For the next question, use this molecule.
Task: Which Papp A→B at 2 h, 10 µM is reported for this molecule? CC(=O)N[C@@](C)(c1ccc(F)cc1)c1cnc(N2CCN(c3ncnn4cc(-c5cnn(C)c5)cc34)CC2)nc1
Result: 11.3

----------
- Test system: MDR1
- experiment summary: MDCKII-MDR1 permeability assay
- test parameters: dog, MDCK-MDR1
parameter: efflux ratio at 2 h, 10 µM
# respond with the number and nothing more

Task: Value lookup for efflux ratio at 2 h, 10 µM; key = CC(=O)N[C@@](C)(c1ccc(F)cc1)c1cnc(N2CCN(c3ncnn4cc(-c5cnn(C)c5)cc34)CC2)nc1
Result: 0.48

Task: Can you handle C=CC(=O)N[C@@](C)(c1ccc(F)cc1)c1cnc(N2CCN(c3ncnn4cc(-c5cnn(C)c5)cc34)CC2)nc1 next?
Result: 0.2

Task: Could you do the same for Cn1cc(-c2cc3c(N4CCN(c5ncc([C@@](C)(NC(=O)c6ccccc6)c6ccc(F)cc6)cn5)CC4)ncnn3c2)cn1 , please?
Result: 0.13

Now look at this entry.
Task: Endpoint output: efflux ratio at 2 h, 10 µM of COC(=O)N[C@@](C)(c1ccc(F)cc1)c1cnc(N2CCN(c3ncnn4cc(-c5cnn(C)c5)cc34)CC2)nc1 . Value?
Result: 0.22

----------
- System: T1-T670I
- experiment summary: CellTiter-Glo (CTG) GR50, T1-T670I
- test parameters: Homo sapiens, read-out: KIT CTG GR50 T1-T670I, mean ± s.d., n ≥ 3
This section presents molecules with their documented GI50 values.

Task: Which GI50 reading was recorded for the molecule Cn1cc(-c2cc3c(N4CCN(c5ncccn5)CC4)ncnn3c2)cn1 ?
Result: ≥ 10 µM

Task: And what about the molecule CN(C)[C@@](C)(c1ccc(F)cc1)c1cnc(N2CCN(c3ncnn4cc(-c5cnn(C)c5)cc34)CC2)nc1 ?
Result: 2.56 µM

Task: Now consider Cn1cc(-c2cc3c(N4CC5(CN(c6ncc(Cc7ccccc7)cn6)C5)C4)ncnn3c2)cn1 and answer again.
Result: ≥ 10 µM

Task: // repeat for Cn1cc(-c2cc3c(N4CCN(c5ncc(Cc6ccccc6)cn5)CC4)ncnn3c2)cn1 and report
Result: ≥ 10 µM

----------
- tested system: PDGFRA-D842V (Homo sapiens, UniProt P16234, D842V)
- Construct: purchased Invitrogen PV4203 (lot #2343231B)
- experiment summary: Activity-based HTRF KinEASE assay, PDGFRA-D842V
- Assay type: biochemical
- test parameters: mean ± s.d., n ≥ 3; ATP at KM (14 µM); read-out: HTRF IC50 PDGFRA-D842V
Listed next: entries and their corresponding IC50.

Sample answers from the record:
Task: I'd like to know its IC50. The molecule in question is Cn1cc(-c2cc3c(N4CCNCC4)ncnn3c2)cn1
Result: 5.59 µM

Task: Subsequent entry: CCN[C@@](C)(c1ccc(F)cc1)c1cnc(N2CCN(c3ncnn4cc(-c5cnn(C)c5)cc34)CC2)nc1
Result: < 0.0001 µM

Task: How about this molecule: Cn1cc(-c2cc3c(Cl)ncnn3c2)cn1
Result: 7.34 µM

Kindly consider the entry below.
Task: Which measured IC50 value corresponds to CC(=O)N[C@@](C)(c1ccc(F)cc1)c1cnc(N2CCN(c3ncnn4cc(-c5cnn(C)c5)cc34)CC2)nc1 ?
Result: < 0.0001 µM

----------
- System: T1-T670I
- experiment summary: CellTiter-Glo (CTG) GR50, T1-T670I
- test parameters: Homo sapiens, read-out: KIT CTG GR50 T1-T670I, mean ± s.d., n ≥ 3
parameter: GI50 (nM)
Answer format: numeric, nM implied, no suffix.

Task: Which GI50 reading was recorded for the molecule Cn1cc(-c2cc3c(Cl)ncnn3c2)cn1 ?
Result: 2870

Task: Same question, COC(=O)N[C@@](C)(c1ccc(F)cc1)c1cnc(N2CCN(c3ncnn4cc(-c5cnn(C)c5)cc34)CC2)nc1 this time
Result: 695

Task: Also check CC(=O)N[C@@](C)(c1ccc(F)cc1)c1cnc(N2CCN(c3ncnn4cc(-c5cnn(C)c5)cc34)CC2)nc1
Result: 386

Task: Another molecule: C=CC(=O)N[C@@](C)(c1ccc(F)cc1)c1cnc(N2CCN(c3ncnn4cc(-c5cnn(C)c5)cc34)CC2)nc1
Result: 413

// provenance: paper PMC10761696
